Item-by-item account of SPOT intensity
target: Myo3, P36006; assay: SPOT array; conditions: median of control spots 468
When you answer, write just the number.

Completed entries (count: 3):
binder | parameter_measured | assay_result
YSRKKLPVVLSKMTL | SPOT intensity | 1
NSMRPPLLIPAATTK | SPOT intensity | 40
LYKRKPILLPDPKPL | SPOT intensity | 0

In plain terms, GRSRLFPHSPLGRSS has a documented SPOT intensity of 0

In plain terms, DFTLPPPPPPPGLDE has a documented SPOT intensity of 345

In plain terms, RVTRKRPREPKSTND has a documented SPOT intensity of 19

In plain terms, VKPRQLFPIPLNKVD has a documented SPOT intensity of 0

In plain terms, PKMLPIPSKPTLFDL has a documented SPOT intensity of 36

In plain terms, ANNQGPPNLPARDKS has a documented SPOT intensity of 0
